Tested on: mice bearing PSMA-expressing LNCAP cancer xenografts
Test: Biodistribution of 68Ga-labeled compounds
Format: in vivo
Settings: 1 h post-injection
# Salivary uptake values compiled below
Give the value, in units of % ID/g, as a plain number.

Example entries and their recorded answers appear below.
O=C([O-])CN1CCN(CC(=O)[O-])CCN(CC(=O)NCCCC[C@H](NC(=O)CNC(=O)CCCc2ccc([N+](=O)[O-])cc2)C(=O)NC[C@H]2CC[C@H](C(=O)N[C@@H](Cc3ccc4ccccc4c3)C(=O)NCCCC[C@H](NC(=O)N[C@@H](CCC(=O)O)C(=O)O)C(=O)O)CC2)CCN(CC(=O)[O-])CC1.[68Ga+3] [^68Ga-HTK03089] : 3.95
O=C([O-])CN1CCN(CC(=O)[O-])CCN(CC(=O)NCC2CCC(C(=O)NC(Cc3c4ccccc4cc4ccccc34)C(=O)NCCCCC(NC(=O)NC(CCC(=O)O)C(=O)O)C(=O)O)CC2)CCN(CC(=O)[O-])CC1.[68Ga+3] (stereo not shown) [^68Ga-HTK03041] : 4.99

Would you mind telling me what Salivary uptake value was observed for Nc1ccc(CCCC(=O)NCC(=O)N[C@@H](CCCCNC(=O)CN2CCN(CC(=O)[O-])CCN(CC(=O)[O-])CCN(CC(=O)[O-])CC2)C(=O)NC[C@H]2CC[C@H](C(=O)N[C@@H](Cc3ccc4ccccc4c3)C(=O)NCCCC[C@H](NC(=O)N[C@@H](CCC(=O)O)C(=O)O)C(=O)O)CC2)cc1.[68Ga+3] [^68Ga-HTK03087] ?
1.76

What value of measured Salivary uptake is listed for O=C([O-])CN1CCN(CC(=O)[O-])CCN(CC(=O)NCCCC[C@H](NC(=O)CNC(=O)CCCc2ccc(I)cc2)C(=O)NC[C@H]2CC[C@H](C(=O)N[C@@H](Cc3ccc4ccccc4c3)C(=O)NCCCC[C@H](NC(=O)N[C@@H](CCC(=O)O)C(=O)O)C(=O)O)CC2)CCN(CC(=O)[O-])CC1.[68Ga+3] [^68Ga-HTK03024] ?
3.31

Record request: Salivary uptake value, item O=C([O-])CN1CCN(CC(=O)[O-])CCN(CC(=O)NCCCC[C@H](NC(=O)CNC(=O)CCCc2ccc(Cl)cc2)C(=O)NC[C@H]2CC[C@H](C(=O)N[C@@H](Cc3ccc4ccccc4c3)C(=O)NCCCC[C@H](NC(=O)N[C@@H](CCC(=O)O)C(=O)O)C(=O)O)CC2)CCN(CC(=O)[O-])CC1.[68Ga+3] [^68Ga-HTK03055]
3.87

Give the measured Salivary uptake of COc1ccc(CCCC(=O)NCC(=O)N[C@@H](CCCCNC(=O)CN2CCN(CC(=O)[O-])CCN(CC(=O)[O-])CCN(CC(=O)[O-])CC2)C(=O)NC[C@H]2CC[C@H](C(=O)N[C@@H](Cc3ccc4ccccc4c3)C(=O)NCCCC[C@H](NC(=O)N[C@@H](CCC(=O)O)C(=O)O)C(=O)O)CC2)cc1.[68Ga+3] [^68Ga-HTK03086] .
2.51

So what does the record say about Salivary uptake for O=C([O-])CN1CCN(CC(=O)[O-])CCN(CC(=O)NCCCC[C@H](NC(=O)CNC(=O)CCCc2ccc(F)cc2)C(=O)NC[C@H]2CC[C@H](C(=O)N[C@@H](Cc3ccc4ccccc4c3)C(=O)NCCCC[C@H](NC(=O)N[C@@H](CCC(=O)O)C(=O)O)C(=O)O)CC2)CCN(CC(=O)[O-])CC1.[68Ga+3] [^68Ga-HTK03085] ?
2.61
